assay: Pharmacokinetics in female BALB/c nude mice bearing A375 xenografts, 1 day dosing (PK and PD study): plasma, tumor and brain concentrations, AUC; type: in vivo; conditions: mouse, brain, po, 3 mg/kg, 3 mg/kg p.o. QD × 1 day; 10 h; read-out: Mean Concentration in Brain ± SEM
PARAMETER: concentration at 10 h (ng/g)
# value in ng/g; strip the unit string

Entry under review: CCN(C)S(=O)(=O)Nc1ccc(F)c(Oc2ccc3ncn(C4CC5(CCN(C6CC7(C6)CN(c6cc8c(cc6F)c(N6CCC(=O)NC6=O)nn8C)C7)CC5)C4)c(=O)c3c2)c1C#N (stereo not shown) . Reported concentration at 10 h?
11

* * *

biological target: BRAF V600E (Homo sapiens, UniProt P15056+Q96SW2, V600E); construct: knock-in of the HiBiT tag to the endogenous BRAF V600E locus; host or cells: A375.10 (A375 clonal line, CRISPR HiBiT knock-in at the endogenous BRAF V600E locus); assay: BRAF V600E HiBiT Degradation Assay; assay type: cell-based; conditions: A375.10 cells, BRAF V600E, 2 hours; read-out: HiBiT-Degradation A375.10 BRAF 2 hours DC50
Sequence (P15056 whole entry V600E): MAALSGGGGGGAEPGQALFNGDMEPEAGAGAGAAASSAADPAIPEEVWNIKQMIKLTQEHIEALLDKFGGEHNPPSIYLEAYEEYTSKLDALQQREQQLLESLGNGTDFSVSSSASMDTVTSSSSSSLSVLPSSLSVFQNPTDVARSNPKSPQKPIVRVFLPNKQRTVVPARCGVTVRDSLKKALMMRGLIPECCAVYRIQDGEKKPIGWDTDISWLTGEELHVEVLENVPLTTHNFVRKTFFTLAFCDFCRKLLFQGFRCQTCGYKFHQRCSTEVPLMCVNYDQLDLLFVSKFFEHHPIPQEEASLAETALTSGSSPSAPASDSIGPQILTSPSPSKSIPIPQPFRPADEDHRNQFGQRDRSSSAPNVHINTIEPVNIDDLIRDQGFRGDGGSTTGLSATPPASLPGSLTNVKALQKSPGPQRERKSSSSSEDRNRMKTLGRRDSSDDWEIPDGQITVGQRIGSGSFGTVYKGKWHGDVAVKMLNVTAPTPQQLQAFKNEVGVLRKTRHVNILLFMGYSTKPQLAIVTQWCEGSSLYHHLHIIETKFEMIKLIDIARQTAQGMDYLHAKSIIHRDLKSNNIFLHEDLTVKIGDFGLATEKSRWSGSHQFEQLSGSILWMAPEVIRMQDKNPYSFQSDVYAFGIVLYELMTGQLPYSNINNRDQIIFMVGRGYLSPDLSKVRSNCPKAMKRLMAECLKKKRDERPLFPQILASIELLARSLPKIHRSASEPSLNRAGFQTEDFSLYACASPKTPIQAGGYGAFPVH
Sequence (Q96SW2 whole entry): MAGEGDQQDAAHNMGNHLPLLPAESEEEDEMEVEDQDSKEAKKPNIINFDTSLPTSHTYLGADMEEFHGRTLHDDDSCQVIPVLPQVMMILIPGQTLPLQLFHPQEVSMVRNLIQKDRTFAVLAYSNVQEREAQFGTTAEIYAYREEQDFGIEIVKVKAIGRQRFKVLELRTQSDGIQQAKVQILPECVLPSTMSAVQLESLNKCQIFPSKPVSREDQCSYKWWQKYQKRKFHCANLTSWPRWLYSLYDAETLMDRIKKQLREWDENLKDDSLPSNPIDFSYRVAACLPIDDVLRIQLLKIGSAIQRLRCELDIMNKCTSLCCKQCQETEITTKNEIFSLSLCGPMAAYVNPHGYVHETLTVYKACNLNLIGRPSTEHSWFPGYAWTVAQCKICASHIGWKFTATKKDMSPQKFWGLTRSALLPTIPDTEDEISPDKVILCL
Sequence (Q16531 whole entry partner): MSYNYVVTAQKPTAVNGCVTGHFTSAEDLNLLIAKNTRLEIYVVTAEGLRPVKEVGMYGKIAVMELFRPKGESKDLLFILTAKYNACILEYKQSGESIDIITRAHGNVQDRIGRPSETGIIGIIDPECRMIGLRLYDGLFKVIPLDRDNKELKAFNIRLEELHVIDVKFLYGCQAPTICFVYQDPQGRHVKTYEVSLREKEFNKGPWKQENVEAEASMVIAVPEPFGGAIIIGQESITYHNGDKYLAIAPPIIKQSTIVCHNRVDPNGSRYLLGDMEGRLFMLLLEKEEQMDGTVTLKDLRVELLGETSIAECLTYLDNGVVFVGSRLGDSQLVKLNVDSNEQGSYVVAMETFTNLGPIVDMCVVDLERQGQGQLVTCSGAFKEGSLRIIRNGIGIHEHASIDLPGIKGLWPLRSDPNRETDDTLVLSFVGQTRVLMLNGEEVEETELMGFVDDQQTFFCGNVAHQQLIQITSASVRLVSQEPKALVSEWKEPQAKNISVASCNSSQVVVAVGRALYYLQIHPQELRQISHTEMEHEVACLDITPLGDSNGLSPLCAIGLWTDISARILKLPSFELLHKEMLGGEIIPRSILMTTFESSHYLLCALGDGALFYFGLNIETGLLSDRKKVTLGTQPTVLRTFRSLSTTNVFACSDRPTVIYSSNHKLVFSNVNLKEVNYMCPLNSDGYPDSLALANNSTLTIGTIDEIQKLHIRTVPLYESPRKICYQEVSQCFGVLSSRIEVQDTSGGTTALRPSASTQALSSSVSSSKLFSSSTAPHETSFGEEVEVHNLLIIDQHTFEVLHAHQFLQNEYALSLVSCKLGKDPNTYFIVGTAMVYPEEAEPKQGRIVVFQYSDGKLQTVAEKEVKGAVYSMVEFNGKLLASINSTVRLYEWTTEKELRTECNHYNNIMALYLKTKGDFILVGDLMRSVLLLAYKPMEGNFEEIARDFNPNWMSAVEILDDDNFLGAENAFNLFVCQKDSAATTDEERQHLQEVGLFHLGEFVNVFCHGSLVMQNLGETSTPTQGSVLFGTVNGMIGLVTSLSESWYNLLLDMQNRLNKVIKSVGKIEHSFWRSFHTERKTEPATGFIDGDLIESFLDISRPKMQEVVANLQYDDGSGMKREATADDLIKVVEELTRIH
PARAMETER: DC50

CCN(C)S(=O)(=O)Nc1ccc(F)c(Oc2ccc3ncn(CCC4CCN(C5CCC(c6cc7c(cc6F)c(N6CCC(=O)NC6=O)nn7C)CC5)CC4)c(=O)c3c2)c1C#N (single isomer, unassigned) [Compound 138] = 1000 to 10000 nM
CN(CCO)S(=O)(=O)Nc1ccc(F)c(Oc2ccc3ncn([C@H]4COC5(CCN([C@H]6C[C@@H](c7ccc(NC8CCC(=O)NC8=O)cc7F)C6)CC5)C4)c(=O)c3c2)c1C#N (stereo partly drawn) = < 1000 nM

Please turn your attention to the following entry.
Entry under review: CCN(C)S(=O)(=O)Nc1ccc(F)c(Oc2ccc3ncn([C@H]4CO[C@]5(CCN(C6CCC(c7cc8c(cc7F)c(N7CCC(=O)NC7=O)nn8C)CC6)C5)C4)c(=O)c3c2)c1C#N (single isomer, unassigned) [Compound 289] . Reported DC50?
< 1000 nM

* * *

Assay: Pharmacokinetics after 21 days dosing in the efficacy study (plasma, tumor and brain concentrations; plasma AUC at steady state), Example 14
Assay type: in vivo, female BALB/c nude mice
Conditions: mouse, plasma, po; 100 mg/kg p.o. QD x 21 days; 4 h; mean ± SEM; read-out: Concentration in Plasma
Description: Agents were tested in the A375 human melanoma xenografts. […] Dabrafenib, Compound 26 and Compound 141 in female BALB/c nude mice plasma (K2-EDTA), tumor and brain homogenate were analyzed by LC-MS/MS (Triple Quad 6500+ Low Mass). […]
PARAMETER: concentration at 4 h (ng/mL)
# value in ng/mL; strip the unit string

Entry under review: CC(C)(C)c1nc(-c2cccc(NS(=O)(=O)c3c(F)cccc3F)c2F)c(-c2ccnc(N)n2)s1 [Dabrafenib, dabrafenib, reference compound] . Reported concentration at 4 h?
54.4

* * *

assay: Example 6 pharmacokinetics assay for PKPD study (plasma, tumor, liver); assay type: in vivo, BALB/c nude mice; settings: mouse, plasma, po; 10 mg/kg, single dose; 6 h; read-out: Concentration in Plasma (mean ± SEM)
PARAMETER: concentration at 6 h (ng/mL)
# value in ng/mL; strip the unit string

Entry under review: CCN(C)S(=O)(=O)Nc1ccc(F)c(Oc2ccc3ncn(C4CC5(CCN(C6CCC(c7cc8c(cc7F)c(N7CCC(=O)NC7=O)nn8C)CC6F)CC5)C4)c(=O)c3c2)c1C#N (single isomer, unassigned) . Reported concentration at 6 h?
10400

Entry under review: Cn1nc(N2CCC(=O)NC2=O)c2cc(F)c(C3CCC(N4CCC5(CC4)CC(n4cnc6ccc(Oc7c(F)ccc(NS(=O)(=O)C8CCCC8)c7C#N)cc6c4=O)C5)CC3)cc21 (single isomer, unassigned) . Reported concentration at 6 h?
548

Entry under review: CCN(C)S(=O)(=O)Nc1ccc(F)c(Oc2ccc3ncc([C@@H]4COC5(CCN(C6CCC(c7cc8c(cc7F)c(N7CCC(=O)NC7=O)nn8C)CC6)CC5)C4)nc3c2)c1C#N (single isomer, unassigned) . Reported concentration at 6 h?
3410
